B1: TFE3 (parent)
chain: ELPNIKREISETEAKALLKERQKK

# Variants of: B1
# PROCEDURE_SUMMARY: protein stability index of a GFP-peptide fusion (GPS, HEK-293T) (PSI 1-6); higher = more stable;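 further: lentivirally expressed fusions sorted by FACS into six bins by GFP to DsRed ratio, PSI derived from sequencing read proportions per bin multiplied by bin number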
# CONDITION: c terminus: a fixed tail appended
OBSERVATION_TYPE: protein stability index
Could you keep your reply to the number by itself?

Guide cases for protein stability index, answers given:
mutation_code=E8T test_value=3.46
mutation_code=P3G test_value=3.5
mutation_code=E1I test_value=3.59

## Input Indicate the recorded protein stability index value for this variant: I5K
## Output 4.58

## Input Please indicate protein stability index recorded for E1W
## Output 3.01

## Input Give the value of protein stability index reported for the following: K19T
## Output 2.42

## Input Report measured protein stability index; entry is K15Y
## Output 2.31

## Input Provide one value: measured protein stability index of P3W
## Output 2.43
